The measured values listed here are drawn from PubChem BioAssay AID2060893.

Entries annotated with measured viability, T/C
# Test system: K86415-001-R-J1-PDC complex spheroids, viability
# Experiment Summary: Anticancer human tumor K86415-001-R-J1-PDC patient-derived lung adenocarcinoma cell line growth inhibition [RAS]
# Measurement Setup: second compound 0.3 µM; first compound 10 µM; stronger effect = lower value
Just the number in %, nothing appended.

Observe how each entry below is paired with its result.
Molecule	viability, T/C, %
CC(=O)OC12COC1CC(O)C1(C)C(=O)C(O)C3=C(C)C(OC(=O)C(O)C(NC(=O)OC(C)(C)C)c4ccccc4)CC(O)(C(OC(=O)c4ccccc4)C21)C3(C)C (centres undefined) + CCn1c(-c2cccnc2C(C)OC)c2c3cc(ccc31)N1CCOC(CC(NC(=O)C(C(C)C)N(C)C(=O)C3(F)CCN(C(=O)C#CC(C)(C)N(C)C)CC3)C(=O)N3CCCC(N3)C(=O)OCC(C)(C)C2)C1	7.01
CC1(O)CCCC1n1c(=O)c(C(F)F)cc2cnc(NC3CCN(S(C)(=O)=O)CC3)nc21 (centres undefined) + CCn1c(-c2cc(N3CCN(C)CC3)cnc2C(C)OC)c2c3cc(ccc31)-c1csc(n1)CC(NC(=O)C1CC1C)C(=O)N1CCCC(N1)C(=O)OCC(C)(C)C2	4.66
CC(=O)OC12COC1CC(O)C1(C)C(=O)C(O)C3=C(C)C(OC(=O)C(O)C(NC(=O)OC(C)(C)C)c4ccccc4)CC(O)(C(OC(=O)c4ccccc4)C21)C3(C)C (centres undefined) + CCn1c(-c2cc(N3CCN(C)CC3)cnc2C(C)OC)c2c3cc(ccc31)-c1csc(n1)CC(NC(=O)C1CC1C)C(=O)N1CCCC(N1)C(=O)OCC(C)(C)C2	1.73

Kindly consider the entry below.
The molecule CC(C)NCC(C(=O)N1CCN(c2ncnc3c2C(C)CC3O)CC1)c1ccc(Cl)cc1 (centres undefined) + CCn1c(-c2cc(N3CCN(C)CC3)cnc2C(C)OC)c2c3cc(ccc31)-c1csc(n1)CC(NC(=O)C1CC1C)C(=O)N1CCCC(N1)C(=O)OCC(C)(C)C2 showed viability, T/C equal to 0.84

* * *

# Tested on: K86415-001-R-J1-PDC complex spheroids, viability
# Experiment Summary: Anticancer human tumor K86415-001-R-J1-PDC cell line growth inhibition [RAS]; active means viability on the fitted dose curve at most 10% of control; inactive means the rest;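 note: spheroids exposed to agents for seven days before readout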
# Measurement Setup: second compound 0.0316 µM; first compound 0.0949 µM
Your answer must be one of the following: y = active, n = inactive

Consider the worked cases shown below.
Compound	Study System	Class Label
CC1(C)CCC(Nc2ncc(C(F)(F)F)c(-c3c[nH]c4c(P(C)(C)=O)c(C#N)ccc34)n2)CN1 (centres undefined) + C=CC(=O)N1CCN(c2nc(OCC3CCCN3C)nc3c(F)c(-c4nc(N)cc(C)c4C(F)(F)F)c(Cl)cc23)C(C)C1	K86415-001-R-J1-PDC complex spheroids, viability	n
CCc1c2c(nc3ccc(O)cc13)-c1cc3c(c(=O)n1C2)COC(=O)[C@]3(O)CC + C=CC(=O)N1CCN(c2nc(OCC3CCCN3C)nc3c(F)c(-c4nc(N)cc(C)c4C(F)(F)F)c(Cl)cc23)C(C)C1	K86415-001-R-J1-PDC complex spheroids, viability	y
CC1(C)CCC(Nc2ncc(C(F)(F)F)c(-c3c[nH]c4c(P(C)(C)=O)c(C#N)ccc34)n2)CN1 (centres undefined) + C#Cc1c(F)ccc2cc(O)cc(-c3ncc4c(N5CC6CCC(C5)N6)nc(OCC56CCCN5CC(F)C6)nc4c3F)c12	K86415-001-R-J1-PDC complex spheroids, viability	n

Turning now to a further record.
Outcome logged for CCc1c2c(nc3ccc(O)cc13)-c1cc3c(c(=O)n1C2)COC(=O)[C@]3(O)CC + C#Cc1c(F)ccc2cc(O)cc(-c3ncc4c(N5CC6CCC(C5)N6)nc(OCC56CCCN5CC(F)C6)nc4c3F)c12 in this assay: y

* * *

# Test system: K86415-001-R-J1-PDC complex spheroids, viability
# Experiment Summary: Anticancer human tumor K86415-001-R-J1-PDC cell line growth inhibition [RAS]; active = viability on the fitted dose curve at most 10% of control; inactive = the rest;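 note: spheroids exposed to agents for seven days before readout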
# Measurement Setup: second compound 0.316 µM; first compound 0.3 µM
Your answer must be one of the following: 1 for active, -1 for inactive

Molecule	Study System	Class Label
CC1(C)CCC(Nc2ncc(C(F)(F)F)c(-c3c[nH]c4c(P(C)(C)=O)c(C#N)ccc34)n2)CN1 (centres undefined) + C#Cc1c(F)ccc2cc(O)cc(-c3ncc4c(N5CC6CCC(C5)N6)nc(OCC56CCCN5CC(F)C6)nc4c3F)c12	K86415-001-R-J1-PDC complex spheroids, viability	-1
CC1(C)CCC(Nc2ncc(C(F)(F)F)c(-c3c[nH]c4c(P(C)(C)=O)c(C#N)ccc34)n2)CN1 (centres undefined) + C=CC(=O)N1CCN(c2nc(OCC3CCCN3C)nc3c(F)c(-c4nc(N)cc(C)c4C(F)(F)F)c(Cl)cc23)C(C)C1	K86415-001-R-J1-PDC complex spheroids, viability	-1

Outcome logged for CCc1c2c(nc3ccc(O)cc13)-c1cc3c(c(=O)n1C2)COC(=O)[C@]3(O)CC + C=CC(=O)N1CCN(c2nc(OCC3CCCN3C)nc3c(F)c(-c4nc(N)cc(C)c4C(F)(F)F)c(Cl)cc23)C(C)C1 in this assay: 1

Outcome logged for CCc1c2c(nc3ccc(O)cc13)-c1cc3c(c(=O)n1C2)COC(=O)[C@]3(O)CC + C#Cc1c(F)ccc2cc(O)cc(-c3ncc4c(N5CC6CCC(C5)N6)nc(OCC56CCCN5CC(F)C6)nc4c3F)c12 in this assay: 1

* * *

# System: K86415-001-R-J1-PDC complex spheroids, viability
# Experiment Summary: Anticancer human tumor K86415-001-R-J1-PDC cell line growth inhibition [RAS];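 note: spheroids exposed to agents for seven days before readout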
# Measurement Setup: second compound 0.0949 µM; first compound 0.03 µM; stronger effect = lower value
Parameter: viability, T/C (%)
Just the number in %, nothing appended.

Observe how each entry below is paired with its result.
Molecule	Unit Abbreviation	viability, T/C
CCc1c2c(nc3ccc(O)cc13)-c1cc3c(c(=O)n1C2)COC(=O)[C@]3(O)CC + CCn1c(-c2cc(N3CCN(C)CC3)cnc2C(C)OC)c2c3cc(ccc31)-c1csc(n1)CC(NC(=O)C1CC1C)C(=O)N1CCCC(N1)C(=O)OCC(C)(C)C2	%	2.41
CCc1c2c(nc3ccc(O)cc13)-c1cc3c(c(=O)n1C2)COC(=O)[C@]3(O)CC + CCn1c(-c2cccnc2C(C)OC)c2c3cc(ccc31)N1CCOC(CC(NC(=O)C(C(C)C)N(C)C(=O)C3(F)CCN(C(=O)C#CC(C)(C)N(C)C)CC3)C(=O)N3CCCC(N3)C(=O)OCC(C)(C)C2)C1	%	9.82
CC1(C)CCC(Nc2ncc(C(F)(F)F)c(-c3c[nH]c4c(P(C)(C)=O)c(C#N)ccc34)n2)CN1 (centres undefined) + CCn1c(-c2cc(N3CCN(C)CC3)cnc2C(C)OC)c2c3cc(ccc31)-c1csc(n1)CC(NC(=O)C1CC1C)C(=O)N1CCCC(N1)C(=O)OCC(C)(C)C2	%	5.02

Kindly consider the entry below.
The molecule CC1(C)CCC(Nc2ncc(C(F)(F)F)c(-c3c[nH]c4c(P(C)(C)=O)c(C#N)ccc34)n2)CN1 (centres undefined) + CCn1c(-c2cccnc2C(C)OC)c2c3cc(ccc31)N1CCOC(CC(NC(=O)C(C(C)C)N(C)C(=O)C3(F)CCN(C(=O)C#CC(C)(C)N(C)C)CC3)C(=O)N3CCCC(N3)C(=O)OCC(C)(C)C2)C1 showed viability, T/C equal to 19.6

* * *

# System: K86415-001-R-J1-PDC complex spheroids, viability
# Experiment Summary: Anticancer human tumor K86415-001-R-J1-PDC cell line growth inhibition [RAS];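 note: spheroids exposed to agents for seven days before readout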
# Measurement Setup: curve of first compound; second compound 1 µM
# Text: RAS pathway inhibitors in Combinations in Complex Spheroids A high-throughput screen of multi-cell type tumor spheroids was designed to identify active combinations of RAS pathway inhibitors and targeted small molecules. Complex spheroids include a stromal component modeled by human endothelial cells (HUVEC) and fibroblasts modeled by human mesenchymal stem cells (MSCs). […] Compounds. […] If the clinical Cmax for an agent had not been determined, the highest concentration tested was 10 microM. […]
Parameter: IC50

Observe how each entry below is paired with its result.
Molecule	Experimental Value
C=CC(=O)N1CCN(c2nc(OCC3CCCN3C)nc3c(F)c(-c4nc(N)cc(C)c4C(F)(F)F)c(Cl)cc23)C(C)C1 (centres undefined) + C#Cc1c(F)ccc2cc(O)cc(-c3ncc4c(N5CC6CCC(C5)N6)nc(OCC56CCCN5CC(F)C6)nc4c3F)c12	< 3.16 nM
C=CC(=O)Nc1cc(Nc2nccc(-c3cn(C)c4ccccc34)n2)c(OC)cc1N(C)CCN(C)C + C=CC(=O)N1CCN(c2nc(OCC3CCCN3C)nc3c(F)c(-c4nc(N)cc(C)c4C(F)(F)F)c(Cl)cc23)C(C)C1	< 3.16 nM
CC(C)n1nc(-c2ccc3oc(N)nc3c2)c2c(N)ncnc21 + C=CC(=O)N1CCN(c2nc(OCC3CCCN3C)nc3c(F)c(-c4nc(N)cc(C)c4C(F)(F)F)c(Cl)cc23)C(C)C1	< 0.316 nM
CC1(O)CCCC1n1c(=O)c(C(F)F)cc2cnc(NC3CCN(S(C)(=O)=O)CC3)nc21 (centres undefined) + C=CC(=O)N1CCN(c2nc(OCC3CCCN3C)nc3c(F)c(-c4nc(N)cc(C)c4C(F)(F)F)c(Cl)cc23)C(C)C1	< 31.6 nM
Cc1nc(N2CCC3(CC2)COC(C)C3N)c(CO)nc1Sc1ccnc(N)c1Cl (centres undefined) + C=CC(=O)N1CCN(c2nc(OCC3CCCN3C)nc3c(F)c(-c4nc(N)cc(C)c4C(F)(F)F)c(Cl)cc23)C(C)C1	< 31.6 nM
CC1(C)CCC(Nc2ncc(C(F)(F)F)c(-c3c[nH]c4c(P(C)(C)=O)c(C#N)ccc34)n2)CN1 (centres undefined) + C=CC(=O)N1CCN(c2nc(OCC3CCCN3C)nc3c(F)c(-c4nc(N)cc(C)c4C(F)(F)F)c(Cl)cc23)C(C)C1	< 0.949 nM
CC1(O)CCCC1n1c(=O)c(C(F)F)cc2cnc(NC3CCN(S(C)(=O)=O)CC3)nc21 (centres undefined) + C#Cc1c(F)ccc2cc(O)cc(-c3ncc4c(N5CC6CCC(C5)N6)nc(OCC56CCCN5CC(F)C6)nc4c3F)c12	4020 nM
CCN1CCN(Cc2ccc(Nc3ncc(F)c(-c4cc(F)c5nc(C)n(C(C)C)c5c4)n3)nc2)CC1 + C#Cc1c(F)ccc2cc(O)cc(-c3ncc4c(N5CC6CCC(C5)N6)nc(OCC56CCCN5CC(F)C6)nc4c3F)c12	27.1 nM

Kindly consider the entry below.
The molecule C=CC(=O)Nc1cc(Nc2nccc(-c3cn(C)c4ccccc34)n2)c(OC)cc1N(C)CCN(C)C + C#Cc1c(F)ccc2cc(O)cc(-c3ncc4c(N5CC6CCC(C5)N6)nc(OCC56CCCN5CC(F)C6)nc4c3F)c12 showed IC50 equal to 42.3 nM
